Where do the numbers come from? From patent US6784201B2.

- System: human IBAT (Homo sapiens, UniProt Q12908)
- Construct: expressed in transfected cells; host or cells: Baby hamster kidney (BHK) cells, clone H14
- Sequence (Q12908 1-348): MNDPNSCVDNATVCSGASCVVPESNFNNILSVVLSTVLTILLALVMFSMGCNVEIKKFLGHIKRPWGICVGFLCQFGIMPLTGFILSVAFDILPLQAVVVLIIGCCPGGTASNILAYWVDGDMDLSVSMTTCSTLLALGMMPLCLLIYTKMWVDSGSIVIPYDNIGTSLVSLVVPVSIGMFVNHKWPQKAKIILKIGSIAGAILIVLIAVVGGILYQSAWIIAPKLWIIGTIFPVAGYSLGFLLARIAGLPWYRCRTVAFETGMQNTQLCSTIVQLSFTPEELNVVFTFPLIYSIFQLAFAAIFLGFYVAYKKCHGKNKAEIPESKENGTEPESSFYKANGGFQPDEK
- Assay: In vitro assay of IBAT-mediated uptake of [14C]-taurocholate (TC) in H14 cells
- Format: cell-based
- Setup Conditions: H14 cells, Table 5; read-out: IC50 uM (In vitro Taurocholate Cell Uptake)
List of IC50 values.
Measurement Kind: IC50 (µM)

1. CCCC[C@]1(CC)CS(=O)(=O)c2ccccc2[C@@H](c2ccccc2)[C@@H]1O [Example 6a] :: 5
2. CCCC[C@]1(CC)CS(=O)(=O)c2ccc(NO)cc2[C@@H](c2ccccc2)[C@H]1O [Example 38] :: 0.3
3. CCCC[C@@]1(CC)C[C@@H](c2ccccc2)c2ccccc2S(=O)(=O)C1 (relative stereo) [Example 9a] :: 5
4. CCCC[C@]1(CC)CS(=O)(=O)c2ccccc2[C@@H](c2ccccc2)[C@H]1O [Example 6d] :: 0.6
